Each entry below carries its recorded EC50.
Tested on: Human immunodeficiency virus 1
assay_explanation: Antiviral activity against Human immunodeficiency virus 1 IIIB infected human MT4 cells assessed as inhibition of virus-induced cytopathic effect after 4 days by MTT assay
Assay type: functional, organism-based
cond: MT4, 96 h

[
  {
    "item_smiles": "O=C(COc1cccc2ccccc12)N/N=C/c1ccccc1Br",
    "EC50": "> 11.4 µg/mL"
  },
  {
    "item_smiles": "O=C(COc1cccc2ccccc12)N/N=C/c1ccccc1Cl",
    "EC50": "> 56.2 µg/mL"
  },
  {
    "item_smiles": "O=C(COc1cccc2ccccc12)N/N=C/c1cccc(O)c1",
    "EC50": "> 32.6 µg/mL"
  },
  {
    "item_smiles": "COc1ccc(/C=N/NC(=O)COc2cccc3ccccc23)cc1OC",
    "EC50": "> 14.6 µg/mL"
  }
]

May I ask what EC50 has been recorded for `Cc1ccc(/C=N/NC(=O)COc2cccc3ccccc23)cc1` ?
> 83.9 µg/mL

Also, `O=C(COc1cccc2ccccc12)N/N=C/c1ccc(Cl)cc1` please.
> 87.6 µg/mL

Also, `O=C(COc1cccc2ccccc12)N/N=C/c1c(O)ccc2ccccc12` please.
> 2.12 µg/mL

Also, `O=C(COc1cccc2ccccc12)N/N=C/c1ccc([N+](=O)[O-])cc1` please.
> 87.8 µg/mL

Also, `C/C(=N\NC(=O)COc1cccc2ccccc12)c1cccc([N+](=O)[O-])c1` please.
> 12.1 µg/mL

Also, `O=C(COc1cccc2ccccc12)N/N=C/c1cccc([N+](=O)[O-])c1` please.
> 12.1 µg/mL

Also, `COc1ccc(OC)c(/C=N/NC(=O)COc2cccc3ccccc23)c1` please.
> 19.2 µg/mL

Each recorded value in this set is attributed to ChEMBL document CHEMBL3045401.
